# Tested on: 475296-252-R-J1-PDC spheroid viability
# method_notes: Anticancer human tumor 475296-252-R-J1-PDC patient-derived rectal carcinoma cell line growth inhibition [PI3K]
# particulars: curve of first compound; second compound 0.0316 µM; spheroids with HUVEC and MSC
pIC50: −log10 of the molar value.
measure: pIC50

Worked examples follow.
- compound: "CC1(C)CCC(CN2CCN(c3ccc(C(=O)NS(=O)(=O)c4ccc(NCC5CCOCC5)c([N+](=O)[O-])c4)c(Oc4cnc5[nH]ccc5c4)c3)CC2)=C(c2ccc(Cl)cc2)C1 + CC(Nc1ncnc2nc[nH]c12)c1cc2cccc(Cl)c2c(=O)n1-c1ccccc1"
  pIC50: "< 5.00"
- compound: "CNC(=O)c1ccc(N2C(=S)N(c3ccc(C#N)c(C(F)(F)F)c3)C(=O)C2(C)C)cc1F + COc1c(OCCCN2CCOCC2)ccc2c3n(c(=NC(=O)c4cnc(N)nc4)nc12)CCN3"
  pIC50: "< 5.00"
- compound: "CC1(C)CCC(CN2CCN(c3ccc(C(=O)NS(=O)(=O)c4ccc(NCC5CCOCC5)c([N+](=O)[O-])c4)c(Oc4cnc5[nH]ccc5c4)c3)CC2)=C(c2ccc(Cl)cc2)C1 + CC(Nc1ccc2c(c1)OCCn1cc(N3C(=O)OCC3C(F)F)nc1-2)C(N)=O"
  pIC50: "< 5.00"
- compound: "Cn1cnc2c(F)c(Nc3ccc(Br)cc3Cl)c(C(=O)NOCCO)cc21 + Cc1nc(NC(=O)N2CCCC2C(N)=O)sc1-c1ccnc(C(C)(C)C(F)(F)F)c1"
  pIC50: "< 5.52"

GET /value?item= C[C@@H](NC(=O)c1ncnc(N)c1Cl)c1ncc(C(=O)Nc2cc(C(F)(F)F)c(Cl)cn2)s1 + Cc1nc(NC(=O)N2CCCC2C(N)=O)sc1-c1ccnc(C(C)(C)C(F)(F)F)c1 &field=pIC50 returns < 5.00

GET /value?item= CC(Cn1ccc(-c2ccc(C#N)c(Cl)c2)n1)NC(=O)c1cc(C(C)O)[nH]n1 (stereo not given) + Cc1nc(NC(=O)N2CCCC2C(N)=O)sc1-c1ccnc(C(C)(C)C(F)(F)F)c1 &field=pIC50 returns < 5.00

GET /value?item= CCCS(=O)(=O)Nc1ccc(F)c(C(=O)c2c[nH]c3ncc(-c4ccc(Cl)cc4)cc23)c1F + CC(Nc1ccc2c(c1)OCCn1cc(N3C(=O)OCC3C(F)F)nc1-2)C(N)=O &field=pIC50 returns < 5.00

GET /value?item= CC(=O)c1c(C)c2cnc(Nc3ccc(N4CCNCC4)cn3)nc2n(C2CCCC2)c1=O + CC(Nc1ncnc2nc[nH]c12)c1cc2cccc(Cl)c2c(=O)n1-c1ccccc1 &field=pIC50 returns < 7.00

GET /value?item= Cn1ncc(Cl)c1-c1cc(C(=O)NC(CN)Cc2cccc(F)c2)sc1Cl (stereo not given) + CC(Nc1ccc2c(c1)OCCn1cc(N3C(=O)OCC3C(F)F)nc1-2)C(N)=O &field=pIC50 returns < 5.00

GET /value?item= CCN1CCN(Cc2ccc(Nc3ncc(F)c(-c4cc(F)c5nc(C)n(C(C)C)c5c4)n3)nc2)CC1 + CC(Nc1ncnc2nc[nH]c12)c1cc2cccc(Cl)c2c(=O)n1-c1ccccc1 &field=pIC50 returns < 6.00

###

# Tested on: 475296-252-R-J1-PDC spheroid viability
# method_notes: Anticancer human tumor 475296-252-R-J1-PDC cell line growth inhibition [PI3K];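 further: spheroids exposed to agents for seven days before readout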
# particulars: second compound 10 µM; first compound 0.0316 µM; stronger effect = lower value; spheroids with HUVEC and MSC
measure: viability, T/C (%)
Write down the numeric answer in % and omit the unit.

Worked examples follow.
- molecule: "Cn1ncnc1[C@H]1c2n[nH]c(=O)c3cc(F)cc(c23)N[C@@H]1c1ccc(F)cc1 + Cc1nc(NC(=O)N2CCCC2C(N)=O)sc1-c1ccnc(C(C)(C)C(F)(F)F)c1"
  viability, T/C / %: 91.3
- molecule: "C=CC(=O)N1CCN(c2nc(=O)n(-c3c(C)ccnc3C(C)C)c3nc(-c4c(O)cccc4F)c(F)cc23)C(C)C1 (stereo unspecified) + CC(Nc1ncnc2nc[nH]c12)c1cc2cccc(Cl)c2c(=O)n1-c1ccccc1"
  viability, T/C / %: 83.8
- molecule: "Cn1ncnc1[C@H]1c2n[nH]c(=O)c3cc(F)cc(c23)N[C@@H]1c1ccc(F)cc1 + CC(Nc1ncnc2nc[nH]c12)c1cc2cccc(Cl)c2c(=O)n1-c1ccccc1"
  viability, T/C / %: 95.2
- molecule: "C[C@@H](NC(=O)c1ncnc(N)c1Cl)c1ncc(C(=O)Nc2cc(C(F)(F)F)c(Cl)cn2)s1 + Cc1nc(NC(=O)N2CCCC2C(N)=O)sc1-c1ccnc(C(C)(C)C(F)(F)F)c1"
  viability, T/C / %: 86.6
- molecule: "CCCS(=O)(=O)Nc1ccc(F)c(C(=O)c2c[nH]c3ncc(-c4ccc(Cl)cc4)cc23)c1F + Cc1nc(NC(=O)N2CCCC2C(N)=O)sc1-c1ccnc(C(C)(C)C(F)(F)F)c1"
  viability, T/C / %: 80.4
- molecule: "CC1(C)CCC(Nc2ncc(C(F)(F)F)c(-c3c[nH]c4c(P(C)(C)=O)c(C#N)ccc34)n2)CN1 (stereo unspecified) + Cc1nc(NC(=O)N2CCCC2C(N)=O)sc1-c1ccnc(C(C)(C)C(F)(F)F)c1"
  viability, T/C / %: 104

GET /value?item= CC(=O)c1c(C)c2cnc(Nc3ccc(N4CCNCC4)cn3)nc2n(C2CCCC2)c1=O + CC(Nc1ncnc2nc[nH]c12)c1cc2cccc(Cl)c2c(=O)n1-c1ccccc1 &field=viability, T/C returns 99.8

GET /value?item= CNC(=O)c1ccc(N2C(=S)N(c3ccc(C#N)c(C(F)(F)F)c3)C(=O)C2(C)C)cc1F + Cc1nc(NC(=O)N2CCCC2C(N)=O)sc1-c1ccnc(C(C)(C)C(F)(F)F)c1 &field=viability, T/C returns 80.8

GET /value?item= CC1(C)CCC(Nc2ncc(C(F)(F)F)c(-c3c[nH]c4c(P(C)(C)=O)c(C#N)ccc34)n2)CN1 (stereo unspecified) + CC(Nc1ncnc2nc[nH]c12)c1cc2cccc(Cl)c2c(=O)n1-c1ccccc1 &field=viability, T/C returns 88.7

GET /value?item= CC(Cn1ccc(-c2ccc(C#N)c(Cl)c2)n1)NC(=O)c1cc(C(C)O)[nH]n1 (stereo unspecified) + Cc1nc(NC(=O)N2CCCC2C(N)=O)sc1-c1ccnc(C(C)(C)C(F)(F)F)c1 &field=viability, T/C returns 90.2

Where do the numbers come from? From PubChem BioAssay AID1963980.
